# IC50 values compiled below
Target: human CSNK1D (Homo sapiens)
Sequence (P48730 whole entry): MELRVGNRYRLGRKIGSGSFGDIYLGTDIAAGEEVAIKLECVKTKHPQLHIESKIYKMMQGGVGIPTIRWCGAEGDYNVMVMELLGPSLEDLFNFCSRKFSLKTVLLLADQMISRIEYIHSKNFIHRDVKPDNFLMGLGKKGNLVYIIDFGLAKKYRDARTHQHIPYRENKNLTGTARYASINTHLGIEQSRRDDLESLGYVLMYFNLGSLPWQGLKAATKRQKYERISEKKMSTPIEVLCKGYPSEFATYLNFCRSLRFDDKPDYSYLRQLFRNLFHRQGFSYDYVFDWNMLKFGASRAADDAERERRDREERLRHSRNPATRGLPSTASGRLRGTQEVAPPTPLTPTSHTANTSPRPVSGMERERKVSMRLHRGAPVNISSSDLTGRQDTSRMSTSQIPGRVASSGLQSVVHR
Assay: Whole Cell nBRET CSNK1D Binding Assay
Settings: living CHO cells stably expressing human CSNK1D tagged with nanoluciferase; NanoBret tracer 130 nM; 2 hours at 37 C

- molecule: "Clc1ccc(-c2nn3c(c2-c2ccnc4[nH]ncc24)COCC3)cc1"
  operator: "="
  IC50 / nM: 243
- molecule: "CC1(C)Cn2nc(-c3ccc(F)cn3)c(-c3ccnc4cc[nH]c34)c2CO1"
  operator: ">"
  IC50 / nM: 10000
- molecule: "CC1(C)Cn2nc(-c3ccc(F)cn3)c(-c3ccn4ncc(Cl)c4c3)c2CO1"
  operator: "="
  IC50 / nM: 171
- molecule: "COCC1(F)CCc2c(-c3cc(C(F)F)nc4[nH]ncc34)c(-c3ccc(F)cn3)nn2C1 (single isomer, unassigned) [Example 307]"
  operator: ">"
  IC50 / nM: 10000
- molecule: "Cc1cc(-c2c(-c3ccc(F)cc3)nn3c2CO[C@H](C)C3)c2cn[nH]c2n1 (single isomer, unassigned)"
  operator: "="
  IC50 / nM: 25
- molecule: "Cc1n[nH]c2nccc(-c3c(-c4ccc(F)cc4)nn4c3COC(C(F)(F)F)C4)c12 (single isomer, unassigned) [Example 372]"
  operator: "="
  IC50 / nM: 724
- molecule: "CC1(C)Cc2c(-c3c(F)cnc4[nH]ncc34)c(-c3ccc(F)cn3)nn2C1"
  operator: "="
  IC50 / nM: 21
- molecule: "Fc1ccc(-c2nn3c(c2-c2ccnc4[nH]ncc24)CC[C@@H]2C[C@@H]23)cc1 (stereo in doubt)"
  operator: "="
  IC50 / nM: 39
- molecule: "Cc1cc(-c2c(-c3ccc(F)cn3)nn3c2CO[C@](C)(C(F)(F)F)C3)c2cn[nH]c2n1 (single isomer, unassigned)"
  operator: "="
  IC50 / nM: 15
- molecule: "Cn1ncc2nccc(-c3c(-c4ccc(F)cn4)nn4c3COC(C)(C)C4)c21"
  operator: ">"
  IC50 / nM: 10000
- molecule: "Fc1ccc(-c2nn3c(c2-c2c(F)cnc4[nH]ncc24)C[C@@H]2C[C@@H]23)nc1"
  operator: "="
  IC50 / nM: 71
- molecule: "Fc1ccc(-c2nn3c(c2-c2ccnc4[nH]ncc24)COCC3)nc1"
  operator: "="
  IC50 / nM: 337
- molecule: "CC(=O)Nc1cc(-c2c(-c3ccc(F)cc3)nn3c2CC[C@@H]2[C@H]3C2(F)F)ccn1 (stereo in doubt)"
  operator: "="
  IC50 / nM: 74
- molecule: "Cc1nc2[nH]ncc2c(-c2c(-c3ccc(F)cn3)nn3c2OCC2(CC2)C3)c1F"
  operator: "="
  IC50 / nM: 20
- molecule: "Cc1cc(-c2c(-c3ccc(F)cn3)nn3c2C[C@@]2(C3)CC2(F)F)c2c(Cl)n[nH]c2n1 (single isomer, unassigned)"
  operator: "="
  IC50 / nM: 15

---

Biological target: human recombinant GST cleaved CSNK1D (Homo sapiens)
Construct: GST (cleaved yes)
Experiment: Purified Enzyme Assay (ADP-Glo CSNK1D Kinase Assay)
Settings: 2 nM CSNK1D; peptide substrate 150 μM; ATP 20 μM; 45 minutes at room temperature
pIC50: −log10 of the molar value.

- compound: "Fc1ccc(-c2nn3c(c2-c2ccnc4[nH]ncc24)CCC2(C3)CC2(F)F)nc1 (single isomer, unassigned) [Example 328]"
  pIC50: 9.00
- compound: "Fc1ccc(-c2nn3c(c2-c2ccnc4[nH]ncc24)CCCC3)nc1"
  pIC50: 7.96
- compound: "Cc1cc(-c2c(-c3ccc(F)cc3)nn3c2[C@@H]2C[C@@H]2C3)c2cn[nH]c2n1 (relative stereo)"
  pIC50: 9.00
- compound: "Fc1ccc(-c2nn3c(c2-c2ccnc4[nH]ncc24)C[C@@H](F)C3)cc1"
  pIC50: 8.15
- compound: "CC1(C)Cn2nc(-c3ccc(F)cn3)c(-c3ccnc(NC(=O)CC(F)(F)F)c3)c2CO1"
  pIC50: 8.70
- compound: "Cc1cc(-c2c(-c3ccc(F)cn3)nn3c2CCC(F)(F)C3)c2cn[nH]c2n1"
  pIC50: 7.92
- compound: "Cc1cc(-c2c(-c3ccc(F)cn3)nn3c2C[C@H]2C[C@H]23)c2cn[nH]c2n1"
  pIC50: 7.39
- compound: "Fc1ccc(-c2nn3c(c2-c2ccnc4[nH]ncc24)COC2(C3)CC2(F)F)nc1 (single isomer, unassigned) [Example 434]"
  pIC50: 6.78
- compound: "Fc1ccc(-c2nn3c(c2-c2ccnc4[nH]ncc24)CO[C@H](C2CC2)C3)nc1 (single isomer, unassigned)"
  pIC50: 7.39
- compound: "[2H]C([2H])([2H])C1(C([2H])([2H])[2H])Cn2nc(-c3ccc(F)cn3)c(-c3ccnc(NC(=O)CC)c3)c2CO1"
  pIC50: 8.70
- compound: "CC1(C)Cn2nc(-c3ccc(F)cc3)c(-c3ccnc4[nH]ncc34)c2CO1"
  pIC50: 9.00
- compound: "C[C@@H]1OCc2c(-c3ccnc4[nH]ncc34)c(-c3ccc(F)cn3)nn2[C@H]1C (stereo in doubt)"
  pIC50: 7.49
- compound: "COc1ccc2nccc(-c3c(-c4ccc(F)cn4)nn4c3COC(C)(C)C4)c2n1"
  pIC50: 7.72
- compound: "CC1(O)COCc2c(-c3ccnc4[nH]ncc34)c(-c3ccc(F)cn3)nn2C1 (stereo not drawn)"
  pIC50: 6.64
- compound: "Fc1ccc(-c2nn3c(c2-c2ccnc4[nH]ccc24)CCCC3)cc1"
  pIC50: 8.40

Values compiled from patent US20230339970A1.
